- study.system: dehydroquinate synthase of Arabidopsis thaliana (AtDHQS) (Arabidopsis thaliana)
- protocol: DHQS activity assay
- Format: biochemical
pIC50: −log10 of the molar value.
reported.metric: pIC50

- O=C(CO)[C@@H](O)[C@H](O)[C@H](O)[C@H](O)CF: 3.70

----------
- study.system: dehydroquinate synthase of Arabidopsis thaliana (AtDHQS) (Arabidopsis thaliana, UniProt Q8VYV7)
- Sequence (Q8VYV7 59-442): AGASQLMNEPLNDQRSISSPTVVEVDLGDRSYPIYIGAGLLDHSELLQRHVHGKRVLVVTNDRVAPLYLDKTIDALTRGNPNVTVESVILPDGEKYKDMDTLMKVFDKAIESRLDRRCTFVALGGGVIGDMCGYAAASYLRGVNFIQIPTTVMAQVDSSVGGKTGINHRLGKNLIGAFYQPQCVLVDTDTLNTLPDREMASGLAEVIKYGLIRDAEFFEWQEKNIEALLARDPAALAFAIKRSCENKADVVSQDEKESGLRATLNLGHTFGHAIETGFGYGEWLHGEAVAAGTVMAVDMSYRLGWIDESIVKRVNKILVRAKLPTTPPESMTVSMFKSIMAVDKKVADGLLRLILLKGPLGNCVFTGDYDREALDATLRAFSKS
- protocol: DHQS activity assay
- Assay type: biochemical
- study.conditions: IC50, AtDHQS, series [b] enzyme preparation
pIC50: −log10 of the molar value.
reported.metric: pIC50

* C[C@@H](O)[C@@H](O)[C@@H](O)[C@H](O)C(=O)CO | 4.07
